# ASSAY OVERVIEW: Annexin V-FITC/PI staining assay by flow cytometry
# Format: cell-based, human
# CONDITION PARAMETERS: human, HT-29 cells, 288 μM, 24 h; read-out: viable cells (LL)
REPORTED PROPERTY: viability at 24 h, 288 µM (%)
Quick reminder: number only, in %, skip the unit.

Incoming: Which measured viability at 24 h, 288 µM value corresponds to COc1cc(O)c(C(=O)c2ccc(O)cc2)c(O)c1 [2,4′,6-trihydroxy-4-methoxybenzophenone] ?
Outgoing: 23.8

* * *

# ASSAY OVERVIEW: Annexin V-FITC/PI staining assay by flow cytometry
# Format: cell-based, human
# CONDITION PARAMETERS: human, HT-29 cells, 96 μM, 24 h; read-out: viable cells (LL)
# Procedure: The quantification of cell death was determined by flow cytometry using the Annexin V-FITC apoptosis detection kit according to the manufacturer's instructions (BD Pharmingen, BD Bioscience, USA). […] The samples were then analyzed using FACScalibur (BD Bioscience, USA) using CellQuest Pro analysis software (Becton Dickinson, USA). […]
REPORTED PROPERTY: viability at 24 h, 96 µM (%)
Form entry: value (%) — number only.

Incoming: Entry under review: COc1cc(O)c(C(=O)c2ccc(O)cc2)c(O)c1 [2,4′,6-trihydroxy-4-methoxybenzophenone] . Reported viability at 24 h, 96 µM?
Outgoing: 69.3

* * *

# ASSAY OVERVIEW: Annexin V-FITC/PI staining assay by flow cytometry
# Format: cell-based, human
# CONDITION PARAMETERS: human, HT-29 cells, 192 μM, 24 h; read-out: viable cells (LL)
# Method: The quantification of cell death was determined by flow cytometry using the Annexin V-FITC apoptosis detection kit according to the manufacturer's instructions (BD Pharmingen, BD Bioscience, USA). […] The samples were then analyzed using FACScalibur (BD Bioscience, USA) using CellQuest Pro analysis software (Becton Dickinson, USA). […]
REPORTED PROPERTY: viability at 24 h, 192 µM (%)
I only need the number, in %, no unit after it.

Incoming: # get_value(readout='viability at 24 h, 192 µM', item= COc1cc(O)c(C(=O)c2ccc(O)cc2)c(O)c1 [2,4′,6-trihydroxy-4-methoxybenzophenone] )
Outgoing: 35.2

* * *

# Test system: human normal fibroblast lung cells (MRC-5)
# ASSAY OVERVIEW: MTT cell proliferation assay, MRC-5
# Assay type: cell-based
# CONDITION PARAMETERS: MRC5, 48 h
REPORTED PROPERTY: IC50
Answer shape: numeric part, then the unit.

Incoming: Query (molecule): COc1cc(O)c(C(=O)c2ccc(O)cc2)c(O)c1 [2,4′,6-trihydroxy-4-methoxybenzophenone] ; field requested: IC50
Outgoing: 269 µM
